# Test system: KB-3-1
# Measurement Protocol: Cytotoxic Profiling of Annotated Libraries Using Quantitative High-Throughput Screening (AID 1296008); also: % is scaled to controls: 0 for no effect and ±100 for the full control effect; nearly all actives have a fitted effect of over 60% in size
# Experimental Setup: Five cell lines viability, CellTiter-Glo ATP luminescence, 48-72 h, active compounds read low
Results filed as inconclusive are left out.
Endpoint: max response (%)
Give bare numbers, in %.

Item Smiles | Tested On | max response [%]
O[C@@H]1CO[C@H]2[C@@H]1OC[C@@H]2O | KB-3-1 | 6.79

I'm hoping you can list max response for every molecule here, please.
1. CC(=O)Oc1cccc(O)c1
2. O=C(CCBr)N1CCN(C(=O)CCBr)CC1
3. Cc1ccc(C(C)C)c(O)c1

Result:
1. -9.73
2. -5.88
3. 18.3

Ask: Tell me the measured max response of Nc1c2c(nc3c1CCC3)CCCC2 , please.
Result: -0.45

---

# Tested On: Phospholipid hydroperoxide glutathione peroxidase GPX4 (Homo sapiens) (UniProt P36969)
# Sequence (P36969 whole entry, looked up): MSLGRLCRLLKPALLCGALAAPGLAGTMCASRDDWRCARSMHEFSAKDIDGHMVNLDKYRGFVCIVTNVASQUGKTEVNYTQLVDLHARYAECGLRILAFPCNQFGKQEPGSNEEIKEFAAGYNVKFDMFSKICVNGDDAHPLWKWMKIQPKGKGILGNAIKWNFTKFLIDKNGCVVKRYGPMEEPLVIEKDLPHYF
# Measurement Protocol: Primary qHTS Assay for Inhibitors of Recombinant Selenoprotein Glutathione Peroxidase 4 (GPX4) (AID 1845192); also: nearly all actives have a fitted effect of over 65% in size
# Experimental Setup: recombinant GPX4, GR-coupled NADPH fluorescence, 15 min; series mostly up to 50 µM
Inconclusive results are not listed. Activity calls are given as the source filed them. The call rests on the fitted dose curve; in most records, active means well fitted inhibition curve with a large enough effect; inconclusive means small, poorly fitted or top-dose-only effect; inactive means flat fitted curve, though single readings scatter.
Endpoint: outcome

Reference set, count: 4
Compound | Tested On | Endpoint Value
NC(=O)NC1NC(=O)NC1=O (stereo unspecified) | Phospholipid hydroperoxide glutathione peroxidase GPX4 (Homo sapiens) (UniProt P36969) | inactive
CC(=O)N[C@H]1[C@H]([C@H](O)[C@H](O)CO)OC(C(=O)O)=C[C@@H]1N=C(N)N | Phospholipid hydroperoxide glutathione peroxidase GPX4 (Homo sapiens) (UniProt P36969) | inactive
Cc1ccsc1C(=CCCN1CCC[C@@H](C(=O)O)C1)c1sccc1C | Phospholipid hydroperoxide glutathione peroxidase GPX4 (Homo sapiens) (UniProt P36969) | inactive
CCCCCCCC(=O)OCC(O)CO (stereo unspecified) | Phospholipid hydroperoxide glutathione peroxidase GPX4 (Homo sapiens) (UniProt P36969) | inactive

I'm hoping you can list outcome for every compound here, please.
1. CCc1cccc(CC)c1NC(=O)CN(CC(=O)O)CC(=O)O
2. CC(=O)Oc1cccc(O)c1

Result:
["inactive", "inactive"]

---

# Test system: JCK
# Measurement Protocol: qHTS profiling for inhibitors of Plasmodium falciparum proliferation (AID 504749);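 also: 0% = DMSO vehicle and full inhibition = artemisinin control; nearly all actives have a fitted effect of over 60% in size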
# Experimental Setup: P. falciparum in erythrocytes, SYBR Green DNA, 72 h; series mostly up to 28.7 µM
Results filed as inconclusive are left out. Active and inactive are the calls of the source. The call rests on the fitted dose curve; in most records, active means well fitted inhibition curve with a large enough effect; inconclusive means small, poorly fitted or top-dose-only effect; inactive means flat fitted curve, though single readings scatter.
Outcome (select one): active, inactive

Please review the entries below; each comes with its answer.
Compound | Group
O=C(O)CNC(=O)c1ccccc1I | inactive
O=c1[nH]c(=O)c2ccccc2o1 | inactive
CCc1nnc(NS(=O)(=O)c2ccc(N)cc2)s1 | inactive
CCN(CC)CCOC(=O)C(c1ccccc1)c1ccccc1 | inactive
NS(=O)(=O)c1cc2c(cc1C(F)(F)F)NCNS2(=O)=O | inactive

Ask: I would be grateful if you could indicate the recorded call for O=C(CCBr)N1CCN(C(=O)CCBr)CC1 .
Result: inactive

Ask: Here is the next compound: CCCC(O)C(CC)CO (centres undefined)
Result: inactive

Ask: Here is the next compound: O=S1(=O)OC(c2ccc(O)cc2)(c2ccc(O)cc2)c2ccccc21
Result: inactive

The measured values listed here are drawn from PubChem BioAssay (NCATS).
